- SYSTEM: HLA-A2401 (human)
- ASSAY_NOTES: inhibition of 125I probe peptide binding to purified HLA
Quick rule for you: relative binding ratio (IC50 standard/IC50 peptide) at 0.01 or higher means class 1, lower means class 0.

Some solved cases for reference:
# check: relative binding ratio (IC50 standard/IC50 peptide) of LYIFATCL [MAGE3 peptide, position 175, 8 amino acids] is greater than or equal to 0.01 class 1

# check: relative binding ratio (IC50 standard/IC50 peptide) of LYIFATCLGL [MAGE3 peptide, position 175, 10 amino acids] is greater than or equal to 0.01 class 1

# check: relative binding ratio (IC50 standard/IC50 peptide) of QYFFPVIF [MAGE3 peptide, position 144, 8 amino acids] is greater than or equal to 0.01 class 1

# check: relative binding ratio (IC50 standard/IC50 peptide) of SYDGLLGDNQI [MAGE3 peptide, position 185, 11 amino acids] is greater than or equal to 0.01 class 0

# check: relative binding ratio (IC50 standard/IC50 peptide) of NWQYFFPVIF [MAGE3 peptide, position 142, 10 amino acids] is greater than or equal to 0.01 class 1

Next:
# check: relative binding ratio (IC50 standard/IC50 peptide) of EMLGSVVGNW [MAGE3 peptide, position 134, 10 amino acids] is greater than or equal to 0.01 class 0

# check: relative binding ratio (IC50 standard/IC50 peptide) of IFATCLGL [MAGE3 peptide, position 177, 8 amino acids] is greater than or equal to 0.01 class 1

# check: relative binding ratio (IC50 standard/IC50 peptide) of IFSKASSSL [MAGE3 peptide, position 150, 9 amino acids] is greater than or equal to 0.01 class 1

The measurements presented in this section are drawn from patent US20040053822A1.
